This collection of values is drawn from ChEMBL document CHEMBL1955779.

Biological target: Alpha-1A adrenergic receptor (Homo sapiens, UniProt P35348)
Sequence (P35348 whole entry): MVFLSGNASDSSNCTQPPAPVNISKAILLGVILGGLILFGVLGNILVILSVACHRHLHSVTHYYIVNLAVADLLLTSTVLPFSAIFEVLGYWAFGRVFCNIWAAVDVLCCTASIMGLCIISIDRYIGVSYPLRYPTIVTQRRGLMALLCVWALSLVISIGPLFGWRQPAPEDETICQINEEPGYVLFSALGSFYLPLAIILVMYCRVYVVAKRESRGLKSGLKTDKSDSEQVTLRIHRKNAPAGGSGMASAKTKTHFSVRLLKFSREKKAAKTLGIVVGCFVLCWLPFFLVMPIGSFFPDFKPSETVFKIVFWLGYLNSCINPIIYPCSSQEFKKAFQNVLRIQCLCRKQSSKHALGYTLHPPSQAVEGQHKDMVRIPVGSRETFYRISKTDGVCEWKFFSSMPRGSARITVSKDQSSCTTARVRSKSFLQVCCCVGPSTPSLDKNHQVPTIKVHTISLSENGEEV
pKi: −log10 of the molar value.
Assay Endpoint: pKi

Query: Name the recorded pKi of the item c1ccc(C2COC(C3=NCCN3)CO2)cc1 (racemic) in your answer.
Reply: < 5.00

----------
Molecular target: Alpha-2A adrenergic receptor (Homo sapiens, UniProt P08913)
Sequence (P08913 whole entry): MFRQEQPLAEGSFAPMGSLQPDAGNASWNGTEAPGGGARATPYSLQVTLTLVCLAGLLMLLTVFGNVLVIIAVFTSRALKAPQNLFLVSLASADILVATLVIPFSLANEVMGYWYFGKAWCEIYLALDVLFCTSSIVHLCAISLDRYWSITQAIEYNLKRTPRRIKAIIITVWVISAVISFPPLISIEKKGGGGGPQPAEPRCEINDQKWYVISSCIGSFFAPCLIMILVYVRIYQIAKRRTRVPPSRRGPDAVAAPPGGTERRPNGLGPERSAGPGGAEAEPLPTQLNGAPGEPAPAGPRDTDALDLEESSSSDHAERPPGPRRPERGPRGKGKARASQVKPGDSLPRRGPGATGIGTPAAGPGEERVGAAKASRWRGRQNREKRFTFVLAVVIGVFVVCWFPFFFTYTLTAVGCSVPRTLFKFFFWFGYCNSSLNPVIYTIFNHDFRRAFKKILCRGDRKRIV
The following compounds are shown together with reported log10 of Ki values.
Answers are given as log10 of Ki in µM.

Guide cases for log10 of Ki, answers given:
Compound	log10 of Ki
c1ccc([C@H]2CO[C@H](C3=NCCN3)CO2)cc1	0.90
c1ccc([C@H]2COC[C@@H](C3=NCCN3)O2)cc1 (relative stereo)	0.73

Query: Name the recorded log10 of Ki of the item c1ccc(C2COC(C3=NCCN3)CO2)cc1 (racemic) in your answer.
Reply: -0.30

Query: Name the recorded log10 of Ki of the item c1ccc([C@@H]2COC[C@@H](C3=NCCN3)O2)cc1 (relative stereo) in your answer.
Reply: 0.80

Query: Name the recorded log10 of Ki of the item c1ccc([C@@H]2CO[C@@H](C3=NCCN3)CO2)cc1 in your answer.
Reply: -0.40
